Task for the reader: assign each of the following compounds its reported Kd.
Target: FGFR1 (Homo sapiens (Human), UniProt P11362)
Sequence (P11362 22-822): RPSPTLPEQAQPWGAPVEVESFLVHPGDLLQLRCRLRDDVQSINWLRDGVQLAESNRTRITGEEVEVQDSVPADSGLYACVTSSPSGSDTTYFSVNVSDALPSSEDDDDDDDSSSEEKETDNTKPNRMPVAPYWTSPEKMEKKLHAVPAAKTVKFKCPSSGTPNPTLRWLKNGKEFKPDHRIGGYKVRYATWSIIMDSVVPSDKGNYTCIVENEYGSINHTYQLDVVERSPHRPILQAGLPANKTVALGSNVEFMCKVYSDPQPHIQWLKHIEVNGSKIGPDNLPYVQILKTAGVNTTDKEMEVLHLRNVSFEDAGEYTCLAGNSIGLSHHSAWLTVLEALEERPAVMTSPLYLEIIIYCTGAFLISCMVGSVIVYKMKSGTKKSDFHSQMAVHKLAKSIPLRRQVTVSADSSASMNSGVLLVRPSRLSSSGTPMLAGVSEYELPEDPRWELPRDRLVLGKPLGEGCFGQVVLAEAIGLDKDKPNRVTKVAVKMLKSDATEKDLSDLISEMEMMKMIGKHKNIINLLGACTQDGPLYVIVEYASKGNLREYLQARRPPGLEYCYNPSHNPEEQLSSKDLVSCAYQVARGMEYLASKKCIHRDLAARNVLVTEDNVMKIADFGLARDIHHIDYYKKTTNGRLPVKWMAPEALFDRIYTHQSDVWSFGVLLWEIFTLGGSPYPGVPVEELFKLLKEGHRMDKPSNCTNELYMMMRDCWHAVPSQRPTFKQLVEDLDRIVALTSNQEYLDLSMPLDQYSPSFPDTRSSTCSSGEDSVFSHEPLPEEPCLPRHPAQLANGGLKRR
Assay: Kinase assay, binding constants (Kd), kinase-tagged T7 phage, qPCR

Worked examples, 2 compounds total:
INSERT INTO assay_data (compound, result_value) VALUES
  ('COc1cc2[nH]nc(-c3cnc(N4CC5(C4)CN(S(C)(=O)=O)C5)nc3)c2cc1O[C@H](C)c1c(Cl)cncc1Cl', '1 to 20 nM'),
  ('C[C@@H](Oc1ccc2[nH]nc(-c3cnc(N4CC5C(O)C5C4)c(C#N)c3)c2c1)c1c(Cl)cncc1Cl (stereo partly shown)', '100 to 300 nM');

Batch request: Kd for each of the following compounds.
1. Cc1cnnc(C)c1[C@@H](C)Oc1ccc2[nH]nc(-c3cnc(N4CC(O)C4)c(C#N)c3)c2c1
2. Cc1cnnc(C)c1[C@@H](C)Oc1ccc2[nH]nc(-c3cnc(N4CC[C@@H](C(C)(C)O)C4)c(C#N)c3)c2c1
3. CCOC(=O)N1CC2(C1)CN(c1ccc(-c3n[nH]c4ccc(O[C@H](C)c5c(C)cnnc5C)cc34)cn1)C2

Key:
1. 100 to 300 nM
2. 100 to 300 nM
3. 20 to 100 nM

Batch request: Kd for each of the following compounds.
1. C[C@@H](Oc1ccc2[nH]nc(-c3ccc(N4CC5(CCNC5)C4)nc3)c2c1)c1c(Cl)cncc1Cl
2. C[C@@H](Oc1cc2c(-c3cnc(N4CC[C@@H]4C)c(C#N)c3)n[nH]c2cc1Cl)c1c(Cl)cncc1Cl

Key:
["1 to 20 nM", "> 300 nM"]

Data origin, for the record: patent US20240109865A1
